- procedureDetails: Cell toxicity, MTT-based EZ4U assay, A549
- Parameters: species or system human
- measurementParameters: human, A549 cells (alveolar basal epithelial adenocarcinoma); A549, 600 µmol/L, 72 h
readout: viability at 72 h, 600 µmol/L (%)
The response must be a number in % with no trailing unit.

stdin: If you can, please state the reported viability at 72 h, 600 µmol/L value of O=C(/N=C(/NCc1ccccc1)Nc1ccc(Br)cc1)c1ccccc1 [LQOF-G2] .
stdout: 110

stdin: If you can, please state the reported viability at 72 h, 600 µmol/L value of O=C(/N=C(/NCc1ccc(Cl)cc1Cl)Nc1ccc(Br)cc1)c1ccccc1 [LQOF-G32] .
stdout: 95

stdin: If you can, please state the reported viability at 72 h, 600 µmol/L value of O=C(/N=C(/NCc1ccccc1)Nc1ccc([N+](=O)[O-])cc1)c1ccccc1 [LQOF-G1] .
stdout: 90

---

- procedureDetails: Cytotoxicity against RAW 264.7 macrophages (MTT)
- Format: cell-based, murine
- measurementParameters: mouse, RAW 264.7 macrophages, pH 7.2, RAW 264.7 cells
Decision: CC50 at 72 h beneath 200 µM gives class 1; CC50 at 72 h meeting or exceeding 200 µM gives class 0.

stdin: Given the entry CC(C)(C)c1ccc(N/C(=N\C(=O)c2ccccc2)NCc2ccccc2)cc1 , would its reported CC50 at 72 h be below 200 µM?
stdout: class 1

stdin: Given the entry O=C(/N=C(/NCc1ccccc1)Nc1ccc([N+](=O)[O-])cc1)c1ccccc1 , would its reported CC50 at 72 h be below 200 µM?
stdout: class 1

stdin: Given the entry O=C(/N=C(/NCc1ccccc1)Nc1ccc(Br)cc1)c1ccccc1 , would its reported CC50 at 72 h be below 200 µM?
stdout: class 1

stdin: Given the entry O=C(/N=C(/NCc1ccccc1)Nc1ccc(I)cc1)c1ccccc1 , would its reported CC50 at 72 h be below 200 µM?
stdout: class 1

stdin: Given the entry O=C(/N=C(/NCc1ccc(Cl)cc1Cl)Nc1ccc(Br)cc1)c1ccccc1 , would its reported CC50 at 72 h be below 200 µM?
stdout: class 0

stdin: Given the entry O=C(/N=C(/NCc1ccccc1)Nc1ccccc1Br)c1ccccc1 , would its reported CC50 at 72 h be below 200 µM?
stdout: class 0

stdin: Given the entry C[C@@H]1[C@H](O)[C@@H](C)/C=C/C=C/C=C/C=C/C=C/C=C/C=C/[C@H](O[C@@H]2O[C@H](C)[C@@H](O)[C@H](N)[C@@H]2O)C[C@@H]2O[C@](O)(C[C@@H](O)C[C@@H](O)[C@H](O)CC[C@@H](O)C[C@@H](O)CC(=O)O[C@H]1C)C[C@H](O)[C@H]2C(=O)O [Amphotericin B, reference compound] , would its reported CC50 at 72 h be below 200 µM?
stdout: class 1

---

- procedureDetails: Cell toxicity, MTT-based EZ4U assay, A549
- Design: species or system human
- measurementParameters: human, A549 cells (alveolar basal epithelial adenocarcinoma); A549, 37.5 µmol/L, 72 h
readout: viability at 72 h, 37.5 µmol/L (%)
The response must be a number in % with no trailing unit.

stdin: If you can, please state the reported viability at 72 h, 37.5 µmol/L value of O=C(/N=C(/NCc1ccccc1)Nc1ccc([N+](=O)[O-])cc1)c1ccccc1 .
stdout: 101

stdin: If you can, please state the reported viability at 72 h, 37.5 µmol/L value of O=C(/N=C(/NCc1ccc(Cl)cc1Cl)Nc1ccc(Br)cc1)c1ccccc1 .
stdout: 118

stdin: If you can, please state the reported viability at 72 h, 37.5 µmol/L value of O=C(/N=C(/NCc1ccccc1)Nc1ccc(Br)cc1)c1ccccc1 .
stdout: 99
